Target of assay: Bem1-2, P29366
Sequence (P29366 139-227): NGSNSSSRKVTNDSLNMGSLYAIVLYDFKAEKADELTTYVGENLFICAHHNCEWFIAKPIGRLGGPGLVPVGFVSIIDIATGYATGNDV
Assay summary: SPOT array
Measurement parameters: median of control spots 4347
SPOT intensity strictly under 3 means condition met; at 3 or over means condition not met.

Binder | Label value
ISRRRLPVIMHRLKM | condition not met
LLLLFVPDSPYDPAI | condition met
IRMPSNPALPKKLLN | condition met
LPPPPPPPPPPPLPQ | condition not met
RRSKSLPTTPGIRSG | condition met

Incoming: Bench note: check whether MAMRPIPPLPTESEY shows SPOT intensity below 3
Outgoing: condition met

Incoming: Bench note: check whether QPWTDQFEKLEKEVS shows SPOT intensity below 3
Outgoing: condition met

Incoming: Bench note: check whether RRARRQMGIPTISQV shows SPOT intensity below 3
Outgoing: condition not met

Incoming: Bench note: check whether DHPKGPPPPPPPDEK shows SPOT intensity below 3
Outgoing: condition met

Incoming: Bench note: check whether QHQQRQPKRPKRYSL shows SPOT intensity below 3
Outgoing: condition not met

Incoming: Bench note: check whether GTIARPLFLVVLFFI shows SPOT intensity below 3
Outgoing: condition met

Incoming: Bench note: check whether DFTLPPPPPPPGLDE shows SPOT intensity below 3
Outgoing: condition met

Incoming: Bench note: check whether RKNRAPPQRPRFNRD shows SPOT intensity below 3
Outgoing: condition not met

Incoming: Bench note: check whether ATKSASPTLPTRRSR shows SPOT intensity below 3
Outgoing: condition not met

Incoming: Bench note: check whether FVLRYYILIPHEQWD shows SPOT intensity below 3
Outgoing: condition not met

Incoming: Bench note: check whether MPAPPPPPPPPPGAF shows SPOT intensity below 3
Outgoing: condition met

Incoming: Bench note: check whether NRPAIRIPSLKKPAL shows SPOT intensity below 3
Outgoing: condition not met

Incoming: Bench note: check whether AHFQPQRTAPKPPIS shows SPOT intensity below 3
Outgoing: condition not met

Incoming: Bench note: check whether AKDLIVPRRPEWNEG shows SPOT intensity below 3
Outgoing: condition not met

Incoming: Bench note: check whether GPPPPLPPPLFPSSS shows SPOT intensity below 3
Outgoing: condition met
